# Test system: NCI-H23 lung
# assay procedure: NCI-60 one-dose screen, 48 h (100 = growth as untreated, 0 = no growth, -100 = all killed)
# condition info: 10 µM unless noted
Compounds without any hit were thinned out: in the full panel of roughly 83,000, 20% have a hit. Active and inactive are the calls of the source. How the source made its calls: active means growth percent below 10; inactive means the rest.
experimental endpoint: growth

Please review the entries below; each comes with its answer.
INSERT INTO results (molecule, tested_target, experimental_endpoint, reported) VALUES
  ('COc1c(F)ccc(C(=O)Nc2ccc3nc(NC(=O)C4CCCN(S(=O)(=O)c5ccc(C(C)(C)C)cc5)C4)sc3c2)c1F (stereo not drawn)', 'NCI-H23 lung', 'growth', '66.6% (inactive)'),
  ('O=C(Cn1c(/C=C/c2ccc([N+](=O)[O-])cc2)nc2ccccc2c1=O)Nc1ccccc1', 'NCI-H23 lung', 'growth', '54.9% (inactive)'),
  ('O=C(CSc1nc2ccccc2c(=O)[nH]1)Nc1ccccc1C(=O)O', 'NCI-H23 lung', 'growth', '104% (inactive)');

Read the next record carefully.
INPUT: API: value(readout= growth, system= NCI-H23 lung, query= CN(C(=O)CN1C(=O)/C(=C/c2ccco2)SC1=S)C1CCS(=O)(=O)C1 (stereo not drawn) )
OUTPUT: 100% (inactive)

----------
# Tested on: SF-295 CNS
# assay procedure: NCI-60 one-dose screen, 48 h
# condition info: 10 µM unless noted
About 83,000 compounds went through this panel and 20% of them were active in at least one assay; those are over-represented in the sample as a whole. The source made the active and inactive calls. The calls were made as follows: active = growth percent below 10; inactive = the rest.
// one of active, inactive, no free text

Example cases with answers are listed next.
INSERT INTO measurements (compound, assigned_category) VALUES
  ('CCc1ccc(SC2c3cc(OC)ccc3Oc3nc(N)c(C#N)c(N)c32)cc1 (centres undefined)', 'active'),
  ('Nc1cc(-c2c[nH]c3ccc(Cl)cc23)nc2cc(-c3c[nH]c4ccccc34)nn12', 'active'),
  ('CS(=O)(=O)c1ccc(-n2nc(C(=O)NCc3ccccc3)cc2-c2ccc(Cl)cc2)cc1', 'inactive'),
  ('COc1c2c(c(Br)c3c1C(CCc1ccccc1)N(C)CC3)OCO2 (centres undefined)', 'inactive');

INPUT: Hi, sorry to bother you, what did the test record for `COc1c(B(O)O)cc(F)cc1-c1nc2ccc3[nH]ncc3c2c2c1COCC2` ?
OUTPUT: inactive

----------
# Test system: HCC-2998 colon
# assay procedure: NCI-60 one-dose screen, 48 h (100 = growth as untreated, 0 = no growth, -100 = all killed)
# condition info: 10 µM unless noted
The panel holds about 83,000 compounds, 20% with a hit somewhere; the sample as a whole holds those more often.
experimental endpoint: growth (%)
Give just the numeric value; % need not be written.

Please review the entries below; each comes with its answer.
INSERT INTO measurements (compound, tested_target, reported) VALUES
  ('CC1CCc2c(sc3nc(SCC(=O)c4cccc(Br)c4)n(-c4ccccc4)c(=O)c23)C1 (centres undefined)', 'HCC-2998 colon', 60.6),
  ('COc1ccc(N=Nc2c(N)nn3c(-c4ccc5c(c4)C=S=C5)ccnc23)cc1', 'HCC-2998 colon', 48),
  ('COc1ccc2[nH]cc(-c3cc4nc(-c5cn(C)c6ncccc56)cc(N)n4n3)c2c1', 'HCC-2998 colon', -96.5);

INPUT: Which growth value belongs to `COc1ccc(C(=O)/C=C/c2ccc3c(c2)OCCO3)cc1S(N)(=O)=O` ?
OUTPUT: 99.1

INPUT: Next: `CC(C)(C)c1cc(-c2cc(-c3ccccc3)[nH]c(=O)c2C#N)cc(C(C)(C)C)c1`
OUTPUT: 59.8

INPUT: Next: `N#Cc1ccc(C(=O)CSc2nc3c(c(Nc4ccc(S(N)(=O)=O)cc4)n2)CCC3)cc1`
OUTPUT: 15.8

// provenance: PubChem BioAssay (NCI)
